# system name: Ba/F3 BCR-ABL1 T315I (Homo sapiens, UniProt P00519+P11274, T315I)
# Construct: BCR (N-terminal fusion partner of the oncoprotein)
# assay name: Cell growth inhibitory activity assay (CellTiter-Glo), Ba/F3 BCR-ABL1 T315I cells
# condition notes: 72 h, CTG cell viability
For each record, write down the corresponding IC50.

Here's what some known entries look like.
{"columns": ["compound", "IC50"],
 "data": [
  ["CCC(=O)n1cc2c(n1)-c1cc(-c3cc(C(=O)Nc4ccc(OC(F)(F)Cl)cc4)cc4nc5n(c34)[C@H](C)COC5)cnc1C2 [T-45]", "≤ 5 nM"],
  ["C[C@@H]1COCc2nc3cc(C(=O)Nc4ccc(OC(F)(F)Cl)cc4)cc(-c4cnc5c(c4)-c4nn(-c6cccnc6)cc4C5)c3n21 [T-63]", "> 1000 nM"],
  ["C[C@@H]1COCc2nc3cc(C(=O)Nc4ccc(OC(F)(F)Cl)cc4)cc(-c4ccc5c(c4)-c4nn(-c6ncccn6)cc4C5)c3n21 [T-109]", "≤ 5 nM"]
]}

The following compounds each have a reported value; give each one's IC50.
1. CN1Cc2ncc(-c3cc(C(=O)Nc4ccc(OC(F)(F)Cl)cc4)cc4c3C(C)(C)C(=O)N4)cc2C1=O [T-7]
2. C[C@@H]1COCc2nc3cc(C(=O)Nc4ccc(OC(F)(F)Cl)cc4)cc(-c4cnc5c(c4)C(=O)N(C)C5)c3n21 [T-21]
3. CC(C)n1cnc2cc(C(=O)Nc3ccc(OC(F)(F)Cl)cc3)cc(-c3cnccn3)c21 [T-23]
4. C[C@@H]1COCc2nc3cc(C(=O)Nc4ccc(OC(F)(F)Cl)cc4)cc(-c4cnc5c(c4)-c4nn(-c6nccc(-c7cccnc7F)n6)cc4C5)c3n21 [T-95]
5. C[C@@H]1COCc2nc3cc(C(=O)Nc4ccc(OC(F)(F)Cl)cc4)cc(-c4cnc5c(c4)C(=O)/C(=C\N(C)C)C5)c3n21 [T-59]
6. C[C@@H]1COCc2nc3cc(C(=O)Nc4ccc(OC(F)(F)Cl)cc4)cc(-c4cnc5c(c4)-c4nn(-c6nccn6C)cc4C5)c3n21 [T-102]
7. C[C@@H]1COCc2nc3cc(C(=O)Nc4ccc(OC(F)(F)Cl)cc4)cc(-c4cnc5c(c4)-c4nn(C)cc4C5)c3n21 [T-16]

1. 5 to 50 nM
2. 5 to 50 nM
3. 50 to 1000 nM
4. ≤ 5 nM
5. 50 to 1000 nM
6. ≤ 5 nM
7. ≤ 5 nM

Hi, could you look up IC50 for each item in my list?
1. C[C@@H]1COCc2nc3cc(C(=O)Nc4ccc(OC(F)(F)Cl)cc4)cc(-c4cnc5c(c4)-c4n[nH]cc4C5=O)c3n21 [T-60]
2. COc1ncc(-c2ccnc(-n3cc4c(n3)-c3cc(-c5cc(C(=O)Nc6ccc(OC(F)(F)Cl)cc6)cc6nc7n(c56)[C@H](C)COC7)cnc3C4)n2)cc1F [T-97]
3. [2H]C([2H])([2H])n1cc2c(n1)-c1cc(-c3cc(C(=O)Nc4ccc(OC(F)(F)Cl)cc4)cc4nc5n(c34)[C@H](C)COC5)cnc1C2 [T-53]
4. C[C@@H]1COCc2nc3cc(C(=O)Nc4ccc(OC(F)(F)Cl)cc4)cc(-c4cnc5c(c4)-c4nn(C6COC6)cc4C5)c3n21 [T-52]

1: > 1000 nM; 2: ≤ 5 nM; 3: ≤ 5 nM; 4: ≤ 5 nM

Dear colleague, could you please provide IC50 for the compounds listed below?
1. C[C@@H]1CN(C)CCc2nc3cc(C(=O)Nc4ccc(OC(F)(F)Cl)cc4)cc(-c4cnc5c(c4)C(=O)N(C4CC4)C5)c3n21 [T-37]
2. N#Cc1ccnc(-n2cc3c(n2)-c2cc(-c4cc(C(=O)Nc5ccc(OC(F)(F)Cl)cc5)c(N)nc4N4CC[C@@H](F)C4)cnc2C3)n1 [T-133]
3. C[C@@H]1COCc2nc3cc(C(=O)Nc4ccc(OC(F)(F)Cl)cc4)cc(-c4cnc5c(c4)C(=O)N(C4CC4)C5)c3n21 [T-25]
4. C[C@@H]1COCc2nc3cc(C(=O)Nc4ccc(OC(F)(F)Cl)cc4)cc(-c4cnc5c(c4)-c4nn(-c6ccccn6)cc4C5)c3n21 [T-4]

["> 1000 nM", "≤ 5 nM", "5 to 50 nM", "≤ 5 nM"]

Take each entry in turn and give its IC50.
1. C[C@@H]1COCc2nc3cc(C(=O)Nc4ccc(OC(F)(F)Cl)cc4)cc(-c4cnc5c(c4)-c4nn(-c6nccc(-c7cncnc7)n6)cc4C5)c3n21 [T-100]
2. [2H]C([2H])([2H])C([2H])(n1cc2c(n1)-c1cc(-c3cc(C(=O)Nc4ccc(OC(F)(F)Cl)cc4)cc4nc5n(c34)[C@H](C)COC5)cnc1C2)C([2H])([2H])[2H] [T-54]

≤ 5 nM
≤ 5 nM

Please go through the list and note IC50 for each compound.
1. C[C@@H]1COCc2nc3cc(C(=O)Nc4ccc(OC(F)(F)Cl)cc4)cc(-c4cnc5c(c4)-c4nn(-c6ncccn6)cc4C5O)c3n21 (some centres unmarked) [T-106]
2. C[C@@H]1CCSc2nc3cc(C(=O)Nc4ccc(OC(F)(F)Cl)cc4)cc(-c4cnccn4)c3n21 [T-116]
3. C[C@@H]1COCc2nc3cc(C(=O)Nc4ccc(OC(F)(F)Cl)cc4)cc(-c4cnc5c(c4)-c4c(cnn4-c4ncc6ccccc6n4)C5)c3n21 [T-82-A]
4. CC(C)n1cc2c(n1)-c1cc(-c3cc(C(=O)Nc4ccc(OC(F)(F)Cl)cc4)cnc3N3CC[C@@H](F)C3)cnc1C2 [T-10-B]
5. C[C@@H]1COCc2nc3cc(C(=O)Nc4ccc(OC(F)(F)Cl)cc4)cc(-c4cnc5c(c4)-c4nn(-c6nccc(C#N)n6)cc4C5)c3n21 [T-69-B]
6. COc1cnc(-n2cc3c(n2)-c2cc(-c4cc(C(=O)Nc5ccc(OC(F)(F)Cl)cc5)cc5nc6n(c45)[C@H](C)COC6)cnc2C3)nc1 [T-77]

["≤ 5 nM", "5 to 50 nM", "5 to 50 nM", "≤ 5 nM", "≤ 5 nM", "≤ 5 nM"]
